// reported IC50 for each item listed
Target: PD-L1 (Homo sapiens (Human), UniProt Q9NZQ7)
Sequence (Q9NZQ7 19-290): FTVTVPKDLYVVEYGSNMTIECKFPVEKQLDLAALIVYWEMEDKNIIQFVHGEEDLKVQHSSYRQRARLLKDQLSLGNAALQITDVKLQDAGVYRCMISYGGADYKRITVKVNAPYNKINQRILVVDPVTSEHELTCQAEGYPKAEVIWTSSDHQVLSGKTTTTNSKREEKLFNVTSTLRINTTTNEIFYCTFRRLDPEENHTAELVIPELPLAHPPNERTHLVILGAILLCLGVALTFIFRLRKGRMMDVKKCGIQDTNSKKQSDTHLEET
Experiment: Indirect PD-L1 internalization assay using MDA-MB231 cells
Type: cell-based
Settings: 16 hrs
Protocol: For the indirect analysis, cell surface PD-L1 was detected with fluorescently labeled anti-PD-L1 (CD274) antibodies. CHO-PD-L1 cells were seeded at 2×10^5 cells per well of a 6-well tissue culture plate in 2 ml of F-12 medium supplemented with 10% FBS, 200 μg/ml Hydromycin and 250 μg/ml Geneticin and allowed to attach for 24 hours. […] Antibody binding was detected by flow cytometry using an Accuri C6 instrument. […]

>  <CHEMICAL STRUCTURE>
Cc1c(NC(=O)c2nc3c(n2C)CCN(C[C@H](C)O)C3)cccc1-c1cccc(NC(=O)c2nc3c(n2C)CCN(C)C3)c1Cl

>  <IC50>
< 10 nM

$$$$
>  <CHEMICAL STRUCTURE>
Cc1c(Nc2nccc3cc(CN4CC[C@@H](O)C4)cnc23)cccc1-c1cccc(-c2nc3cc(CN4CC(C(=O)O)C4)cc(Cl)c3o2)c1C

>  <IC50>
10 to 100 nM

$$$$

Field: next compound
IC50 recorded for this compound, Cc1c(-c2nc3cc(CN4CC[C@@H](C(=O)O)C4)cc(C#N)c3o2)cccc1-c1cccc(-c2nc3c(s2)CNCC3)c1C , is 10 to 100 nM
